- Tested on: DMS-114 (Small Cell Lung Carcinoma)
- method: Bliss excess, mean over the matrix (fraction); higher = more synergy;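 also: after 72 h of two-drug dosing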
Entry flag: TRUE if Bliss excess reaches 0.02; FALSE if it does not.

Answer whether Bliss excess of C=CCn1c(=O)c2cnc(Nc3ccc(N4CCN(C)CC4)cc3)nc2n1-c1cccc(C(C)(C)O)n1 [AZD1775] + O=C(c1cc(Cc2n[nH]c(=O)c3ccccc23)ccc1F)N1CCN(C(=O)C2CC2)CC1 [Olaparib] (first compound max 1 µM, partner max 10 µM) is greater than or equal to 0.02.
FALSE

Check this compound for Bliss excess at or above 0.02: Cc1c2c(nn1C)CSCc1cc(n(C)n1)CSc1cc(c3ccccc3c1)OCCCc1c(C(=O)O)n(C)c3c-2c(Cl)ccc13 [AZD5991] + C1CN(CCC1(C(=O)N[C@@H](CCO)C2=CC=C(C=C2)Cl)N)C3=NC=NC4=C3C=CN4 [Capivasertib] (first compound max 1 µM, 7x7, partner max 3 µM)
TRUE

For this compound, is measured Bliss excess 0.02 or higher? Cc1c2c(nn1C)CSCc1cc(n(C)n1)CSc1cc(c3ccccc3c1)OCCCc1c(C(=O)O)n(C)c3c-2c(Cl)ccc13 [AZD5991] + C[C@@H]1COCCN1C2=NC(=NC(=C2)C3(CC3)[S@](=N)(=O)C)C4=C5C=CNC5=NC=C4 [AZD6738] (first compound max 1 µM, 7x7, partner max 10 µM)
TRUE

Could you please find out whether Cc1nc(Nc2ncc(C(=O)Nc3c(C)cccc3Cl)s2)cc(N2CCN(CCO)CC2)n1 [Dasatinib] + CC(=O)Nc1cccc(-n2c(=O)n(C3CC3)c(=O)c3c(Nc4ccc(I)cc4F)n(C)c(=O)c(C)c32)c1 [Trametinib] (first compound max 2 µM, 7x7, partner max 1 µM) has Bliss excess that meets 0.02 or exceeds it?
FALSE

hey, is Bliss excess for this one >= 0.02? C=CCn1c(=O)c2cnc(Nc3ccc(N4CCN(C)CC4)cc3)nc2n1-c1cccc(C(C)(C)O)n1 [AZD1775] + C[C@@H]1COCCN1C2=NC(=NC(=C2)C3(CC3)[S@](=N)(=O)C)C4=C5C=CNC5=NC=C4 [AZD6738] (first compound max 1 µM, partner max 10 µM)
TRUE

Could you tell me if the measured Bliss excess of COc1cccc(OCCCN)c1-c1cc(Nc2cnc(C#N)cn2)n[nH]1 [Prexasertib] + CN(C)CCCOc1ccc(-c2ccc3ncc4c(c3c2)n(C2CCOCC2)c(=O)n4C)cn1 [AZD0156] (first compound max 1 µM, 7x7, partner max 1 µM) reaches 0.02 or more?
TRUE

Test whether the compound CS(=O)(=O)CCNCc1ccc(-c2ccc3ncnc(Nc4ccc(OCc5cccc(F)c5)c(Cl)c4)c3c2)o1 [Lapatinib] + C[C@@H](Oc1cc(-c2cnn(C3CCNCC3)c2)cnc1N)c1c(Cl)ccc(F)c1Cl [Crizotinib] (first compound max 10 µM, 7x7, partner max 10 µM) records Bliss excess of 0.02 or higher.
FALSE

Item COc1cccc(OCCCN)c1-c1cc(Nc2cnc(C#N)cn2)n[nH]1 [Prexasertib] + CCc1c2c(nc3ccc(O)cc13)-c1cc3c(c(=O)n1C2)COC(=O)[C@]3(O)CC [SN-38] (first compound max 1 µM, 7x7, partner max 0.3 µM) with Bliss excess of 0.02 or above?
TRUE

Decide: Bliss excess of COc1nnc2ccc(N3CCC(c4ccc(OCCN5CCN(C)C(=O)[C@H]5C)cc4)CC3)nn12 [AZD5153] + C[C@@H]1COCCN1C2=NC(=NC(=C2)C3(CC3)[S@](=N)(=O)C)C4=C5C=CNC5=NC=C4 [AZD6738] (first compound max 1 µM, 7x7, partner max 10 µM) >= 0.02?
FALSE

Has CC(=O)c1c(C)c2cnc(Nc3ccc(N4CCNCC4)cn3)nc2n(C2CCCC2)c1=O [Palbociclib] + Cn1cnc2c(F)c(Nc3ccc(Br)cc3Cl)c(C(=O)NOCCO)cc21 [Selumetinib] (first compound max 10 µM, 7x7, partner max 10 µM) a recorded Bliss excess greater than or equal to 0.02?
FALSE

Is reported Bliss excess greater than or equal to 0.02 here: CN(C)CCCOc1ccc(-c2ccc3ncc4c(c3c2)n(C2CCOCC2)c(=O)n4C)cn1 [AZD0156] + CCN(CCO)CCCOc1ccc2c(Nc3cc(CC(=O)Nc4cccc(F)c4)[nH]n3)ncnc2c1 [AZD2811] (first compound max 1 µM, 7x7, partner max 1 µM)
FALSE

Determine whether measured Bliss excess meets or exceeds 0.02 for CN(CCO)CC[C@H](CSc1ccccc1)Nc1ccc(S(=O)(=O)NC(=O)c2ccc(N3CCC([C@@H](O)c4ccccc4-c4ccc(Cl)cc4)CC3)cc2)cc1S(=O)(=O)C(F)(F)F [AZD4320] + Cc1cc2ncnn2cc1Nc1ncc2c(n1)n(C1CCOCC1)c(=O)n2C [AZD7648] (first compound max 1 µM, 7x7, partner max 10 µM)
FALSE

Can CC(=O)Nc1cccc(-n2c(=O)n(C3CC3)c(=O)c3c(Nc4ccc(I)cc4F)n(C)c(=O)c(C)c32)c1 [Trametinib] + Cc1nc(-c2cn3c(n2)-c2ccc(-c4cnn(C(C)(C)C(N)=O)c4)cc2OCC3)n(C(C)C)n1 [Taselisib] (first compound max 1 µM, 7x7, partner max 10 µM) be said to have Bliss excess at or above 0.02?
TRUE

====

- Test system: G-361 (Melanoma)
- method: Bliss excess, mean over the matrix (fraction); higher = more synergy
Record 1 (yes) whenever Bliss excess is at -0.008 or higher; record 0 (no) when lower.

API: above_or_equal(metric=Bliss excess, cutoff=-0.008) for item Cc1c2c(nn1C)CSCc1cc(n(C)n1)CSc1cc(c3ccccc3c1)OCCCc1c(C(=O)O)n(C)c3c-2c(Cl)ccc13 [AZD5991] + C=CCn1c(=O)c2cnc(Nc3ccc(N4CCN(C)CC4)cc3)nc2n1-c1cccc(C(C)(C)O)n1 [AZD1775] (first compound max 1 µM, partner max 1 µM)
1 (yes)

Please indicate if the recorded Bliss excess for Cc1c2c(nn1C)CSCc1cc(n(C)n1)CSc1cc(c3ccccc3c1)OCCCc1c(C(=O)O)n(C)c3c-2c(Cl)ccc13 [AZD5991] + CCN(CCO)CCCOc1ccc2c(Nc3cc(CC(=O)Nc4cccc(F)c4)[nH]n3)ncnc2c1 [AZD2811] (first compound max 1 µM, 7x7, partner max 1 µM) meets or exceeds -0.008.
1 (yes)

Quick check: does Cc1c2c(nn1C)CSCc1cc(n(C)n1)CSc1cc(c3ccccc3c1)OCCCc1c(C(=O)O)n(C)c3c-2c(Cl)ccc13 [AZD5991] + C[C@@H]1COCCN1C2=NC(=NC(=C2)C3(CC3)[S@](=N)(=O)C)C4=C5C=CNC5=NC=C4 [AZD6738] (first compound max 1 µM, 7x7, partner max 10 µM) have Bliss excess greater than or equal to -0.008?
1 (yes)

Does the reported Bliss excess for COc1cccc(OCCCN)c1-c1cc(Nc2cnc(C#N)cn2)n[nH]1 [Prexasertib] + Cc1cc2ncnn2cc1Nc1ncc2c(n1)n(C1CCOCC1)c(=O)n2C [AZD7648] (first compound max 1 µM, 7x7, partner max 10 µM) fall at or above the -0.008 mark?
1 (yes)

Say whether CC1(C)CCC(CN2CCN(c3ccc(C(=O)NS(=O)(=O)c4ccc(NCC5CCOCC5)c([N+](=O)[O-])c4)c(Oc4cnc5[nH]ccc5c4)c3)CC2)=C(c2ccc(Cl)cc2)C1 [Venetoclax] + C1CN(CCC1(C(=O)N[C@@H](CCO)C2=CC=C(C=C2)Cl)N)C3=NC=NC4=C3C=CN4 [Capivasertib] (first compound max 1 µM, 7x7, partner max 3 µM) shows Bliss excess of -0.008 or more.
0 (no)

Hello, I need to know if CC(=O)Nc1cccc(-n2c(=O)n(C3CC3)c(=O)c3c(Nc4ccc(I)cc4F)n(C)c(=O)c(C)c32)c1 [Trametinib] + Cc1nc(-c2cn3c(n2)-c2ccc(-c4cnn(C(C)(C)C(N)=O)c4)cc2OCC3)n(C(C)C)n1 [Taselisib] (first compound max 1 µM, 7x7, partner max 10 µM) has measured Bliss excess not below -0.008. Thanks!
1 (yes)

Kindly determine if Bliss excess recorded for CC1(C)CCC(CN2CCN(c3ccc(C(=O)NS(=O)(=O)c4ccc(NCC5CCOCC5)c([N+](=O)[O-])c4)c(Oc4cnc5[nH]ccc5c4)c3)CC2)=C(c2ccc(Cl)cc2)C1 [Venetoclax] + CN(C)CCCOc1ccc(-c2ccc3ncc4c(c3c2)n(C2CCOCC2)c(=O)n4C)cn1 [AZD0156] (first compound max 1 µM, 7x7, partner max 1 µM) is above or exactly -0.008.
0 (no)

Confirm if Bliss excess reported for the compound CS(=O)(=O)CCNCc1ccc(-c2ccc3ncnc(Nc4ccc(OCc5cccc(F)c5)c(Cl)c4)c3c2)o1 [Lapatinib] + C[C@@H](Oc1cc(-c2cnn(C3CCNCC3)c2)cnc1N)c1c(Cl)ccc(F)c1Cl [Crizotinib] (first compound max 10 µM, 7x7, partner max 10 µM) is -0.008 or above.
0 (no)

Textbook exercise: given the entry Cn1cnc2c(F)c(Nc3ccc(Br)cc3Cl)c(C(=O)NOCCO)cc21 [Selumetinib] + C=CCn1c(=O)c2cnc(Nc3ccc(N4CCN(C)CC4)cc3)nc2n1-c1cccc(C(C)(C)O)n1 [AZD1775] (first compound max 10 µM, partner max 1 µM) , state whether its Bliss excess is greater than or equal to -0.008.
0 (no)

Check this compound for Bliss excess at or above -0.008: CC1(C)CCC(CN2CCN(c3ccc(C(=O)NS(=O)(=O)c4ccc(NCC5CCOCC5)c([N+](=O)[O-])c4)c(Oc4cnc5[nH]ccc5c4)c3)CC2)=C(c2ccc(Cl)cc2)C1 [Venetoclax] + Cn1cnc2c(F)c(Nc3ccc(Br)cc3Cl)c(C(=O)NOCCO)cc21 [Selumetinib] (first compound max 1 µM, 7x7, partner max 3 µM)
0 (no)

State whether the measured Bliss excess reaches -0.008, counting equality as reaching it, for C=CCn1c(=O)c2cnc(Nc3ccc(N4CCN(C)CC4)cc3)nc2n1-c1cccc(C(C)(C)O)n1 [AZD1775] + C[C@@H]1COCCN1C2=NC(=NC(=C2)C3(CC3)[S@](=N)(=O)C)C4=C5C=CNC5=NC=C4 [AZD6738] (first compound max 1 µM, partner max 10 µM)
0 (no)

Threshold query (Bliss excess >= -0.008) on NC1(C(=O)N[C@@H](CCO)c2ccc(Cl)cc2)CCN(c2ncnc3[nH]ccc23)CC1 [Capivasertib] + CCN(CCO)CCCOc1ccc2c(Nc3cc(CC(=O)Nc4cccc(F)c4)[nH]n3)ncnc2c1 [AZD2811] (first compound max 10 µM, 7x7, partner max 1 µM)
1 (yes)

FYI, the data here is from the supplement of paper PMC11061612.
